system: HCC-2998 colon; experiment: NCI-60 one-dose screen, 48 h; details: 10 µM unless noted
This is part of a sample that, as a whole, favours compounds with a hit. Of some 83,000 tested, about 20% had one in any assay. Active and inactive are the calls of the source. The calls were made as follows: active = growth percent below 10; inactive = the rest.
Thanks in advance; please answer with one of these: 1 (yes) for active, 0 (no) for inactive

molecule=COC(=O)c1c2c(c(C)[n+]([O-])c1C)C(=O)C=C(NCc1ccc(F)c(F)c1)C2=O class_assignment="1 (yes)"
molecule=O=C(Nc1ccc(F)c(Cl)c1)Nc1ccc(Cl)c(Cl)c1 class_assignment="0 (no)"
molecule="COc1ccccc1CNC(=O)C1c2ccccc2C(=O)N(CC(C)C)C1c1cccs1 (stereo not given)" class_assignment="0 (no)"
molecule=CCOC(=O)c1ccc2[nH]c(-c3ccccc3)cc(=O)c2c1 class_assignment="0 (no)"
molecule=COC(=O)/C(=C\c1c(C)[nH]c2ccccc12)S(=O)(=O)c1ccccc1 class_assignment="1 (yes)"

// return assay outcome for `O=c1oc2ccc(Cl)cc2c(=O)n1-c1ccc(F)cc1F`
0 (no)

Answer briefly: the call reported for COc1ccc(C2C3=C(COC3=O)N(CCO)c3cc4c(cc32)CCC4)cc1 (stereo not given) in this assay.
0 (no)
